targetUnderTest: Serine/threonine-protein kinase 33 (Homo sapiens)
statedConditions: at 10 µM
Kindly supply the reported residual activity values for the records listed here.
Numbers only, in %.

Before answering, review these 2 worked examples.
O=c1cc(N2CCNCC2)oc2c(-c3ccccc3)cccc12 93
Cc1cc(C)c(/C=C2\C(=O)Nc3ccccc32)[nH]1 47

Please examine the following record next.
Field request: residual activity | item: CC(C)(C)c1nc2c3ccc(F)cc3c3c(=O)[nH]ccc3c2[nH]1
24

----------
targetUnderTest: Serine/threonine-protein kinase pim-1 (Homo sapiens)
statedConditions: at 1 µM
Give measured residual activity for each item. Keep answers brief.

molecule	targetUnderTest	residual activity
N#C/C(=C\c1ccc(O)c(O)c1)C(=O)NCc1ccccc1	Serine/threonine-protein kinase pim-1 (Homo sapiens)	74%
N#C/C(=C1/Nc2ccccc2S1)c1ccnc(NCCc2cccnc2)n1	Serine/threonine-protein kinase pim-1 (Homo sapiens)	15%
Cn1c2ccccc2c2c3c(c4c5ccccc5n(CCC#N)c4c21)CNC3=O	Serine/threonine-protein kinase pim-1 (Homo sapiens)	18%
O=c1cc(N2CCNCC2)oc2c(-c3ccccc3)cccc12	Serine/threonine-protein kinase pim-1 (Homo sapiens)	84%
Oc1cccc(-c2nc(N3CCOCC3)c3oc4ncccc4c3n2)c1	Serine/threonine-protein kinase pim-1 (Homo sapiens)	88%
COc1ccc(CNC(=O)Nc2ncc([N+](=O)[O-])s2)cc1	Serine/threonine-protein kinase pim-1 (Homo sapiens)	116%

Give residual activity for each listed item.
1. O=C1NC(=O)C(c2cn(CCCn3ccnc3)c3ccccc23)=C1Nc1ccccc1
2. O=c1cc(N2CCOCC2)oc2c1ccc1ccccc12
3. CC(C)[C@H](CO)Nc1nc(Nc2cc(N)cc(Cl)c2)c2ncn(C(C)C)c2n1

1. 65%
2. 55%
3. 95%

Each molecule below has a reported value. Please supply its residual activity.
1. COc1cc2ncnc(Nc3cccc(Cl)c3)c2cc1OC
2. Nc1ncnc2[nH]nc(Nc3ccc(F)cc3)c12
3. O=C1NC(=O)C(c2cn(CCCO)c3ncccc23)=C1c1cnccn1
4. CSc1nc(-c2ccc(F)cc2)c(-c2ccnc(NC(C)c3ccccc3)c2)[nH]1 (stereo unspecified)
5. O=C1Cc2c([nH]c3ccc(Br)cc23)-c2ccccc2N1

1: 62%; 2: 115%; 3: 72%; 4: 85%; 5: 75%

Working through the 5 molecules below one at a time, give residual activity for each.
1. NC(=O)c1cccc(-c2cc(Nc3ccc(OC(F)(F)F)cc3)ncn2)c1
2. CCCC(=O)Oc1ccc2[nH]c(C(=O)c3cc4ccccc4[nH]3)cc2c1
3. CC(C)(C)n1nc(Cc2cccc3ccccc23)c2c(N)ncnc21
4. O=C1NC(=O)C(c2c[nH]c3ccccc23)=C1c1c[nH]c2ccccc12
5. Nc1ncnc2c1c(-c1ccc(Oc3ccccc3)cc1)cn2C1CCCC1

1. 89%
2. 101%
3. 77%
4. 12%
5. 103%

// each listed molecule needs a value for residual activity
1. O=C1NC(=O)c2c1c1c3ccccc3[nH]c1n1cncc21
2. Fc1ccc(-c2nc3n(c2-c2ccncc2)CCS3)cc1

["6%", "91%"]
